assay: qHTS assay to identify small molecule agonists of the farnesoid-X-receptor (FXR) signaling pathway - cell viability counter screen (AID 743218); conditions: FXR-bla HEK293T viability, CellTiter-Glo luminescence, 16 h; series mostly up to 62.6 µM; further: nearly all actives have a fitted effect of over 45% in size; further: potency means the concentration at half of the fitted maximal effect
Results filed as inconclusive are left out. The source made the active and inactive calls. The call rests on the fitted dose curve; in most records, active means well fitted cell-killing curve with a large enough effect in the repeat runs; inconclusive means weak or mixed curves, or effect the other way; inactive means no such curve, though single readings can be large or run the other way.
ENDPOINT: Potency

Answered cases to consult:
COMPOUND	Potency
Oc1ccccc1O	inactive
CC1(C)CCC[C@]2(C)[C@H]3CC(=O)O[C@]3(C)CC[C@@H]12	inactive
CCCc1ccc(OCC(=O)N2CCN(C(=O)COc3ccc(CCC)cc3OC)CC2)c(OC)c1	inactive
CCCC(=O)OCCc1ccccc1	inactive
O=[N+]([O-])c1cccc(C(F)(F)F)c1	inactive
Nc1ccc(Oc2ccc(Cl)cc2)cc1	inactive
CCCCCc1ccc(Cl)cc1	inactive
C#Cc1ccc(-c2ccccc2F)cc1	inactive
CCC(=O)C(=O)CC	inactive
O=c1[nH]c2ccccc2n1CCCN1CCN(C(c2ccccc2)c2ccccc2)CC1	26.6 µM (active)

// returns reported Potency for input Nc1ccc(C(=O)O)c(O)c1 inactive

Can you check C[C@@H](O)[C@H](N)C(=O)O next? inactive

Can you check CN(C)C(=O)COC(=O)Cc1ccc(OC(=O)c2ccc(N=C(N)N)cc2)cc1 next? inactive

Can you check COC(=O)Nc1nc2ccc(C(=O)c3ccccc3)cc2[nH]1 next? inactive

Can you check C[C@H]1NCc2cc(-c3ccc4c(=O)c(C(=O)O)cn(C5CC5)c4c3OC(F)F)ccc21 next? inactive

Can you check C=CCn1c(=O)n(CC=C)c(=O)n(CC=C)c1=O next? inactive

Can you check Cc1cccc(C(=O)O)c1O next? inactive

Can you check CCCCN(CCCC)CC(O)c1cc(Cl)cc2c1-c1ccc(Cl)cc1/C2=C/c1ccc(Cl)cc1 (stereo unspecified) next? 29.8 µM (active)
